experimental_target: Human FXR (NR1H4) (Homo sapiens (Human), UniProt Q96RI1)
Sequence (Q96RI1 whole entry, the tested form may be a part): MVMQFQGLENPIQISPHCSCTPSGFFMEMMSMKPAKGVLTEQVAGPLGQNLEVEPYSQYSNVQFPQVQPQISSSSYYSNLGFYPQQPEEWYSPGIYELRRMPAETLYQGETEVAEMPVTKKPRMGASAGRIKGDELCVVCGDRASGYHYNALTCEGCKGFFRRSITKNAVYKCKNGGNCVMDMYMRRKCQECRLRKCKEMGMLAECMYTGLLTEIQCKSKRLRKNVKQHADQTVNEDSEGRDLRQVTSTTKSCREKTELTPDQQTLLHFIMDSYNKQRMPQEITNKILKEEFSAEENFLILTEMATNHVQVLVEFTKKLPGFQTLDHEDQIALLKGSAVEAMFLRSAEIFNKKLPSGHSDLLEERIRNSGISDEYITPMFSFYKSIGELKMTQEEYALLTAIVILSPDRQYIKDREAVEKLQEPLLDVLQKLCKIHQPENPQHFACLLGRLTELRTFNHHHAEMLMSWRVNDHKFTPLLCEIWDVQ
experiment_notes: Human FXR (NR1H4) Assay (Gal4 promoter driven luciferase reporter transactivation in CHO cells)
Assay type: cell-based
condition_notes: FXR agonistic potency range; CHO reporter cells expressing human NR1H4, 22 hours incubation; read-out: EC50
I'd be grateful if you could share measured EC50 for these entries.

Before answering, review these 2 worked examples.
CC[C@@H]1C2C[C@H](O)CCC2(C)[C@H]2CCC3(C)C([C@H](C)CCC(=O)NS(=O)(=O)c4cccc(F)c4)CC[C@H]3[C@@H]2[C@@H]1O (stereo partly drawn)	< 100 nM
CCC1C(O)C2C3CCC(C(C)CCC(=O)NS(=O)(=O)c4ccccc4[N+](=O)[O-])C3(C)CCC2C2(C)CCC(O)CC12 (stereo not drawn)	100 to 1000 nM

# ---- query compound ----
Item: CCC1C(O)C2C3CCC(C(C)CCC(=O)NS(N)(=O)=O)C3(C)CCC2C2(C)CCC(O)CC12 (stereo not drawn) | EC50: 1000 to 10000 nM

---

experimental_target: UniProt:Q96RI1
experiment_notes: Human FXR (NR1H4) Assay (Gal4 promoter driven luciferase reporter transactivation in CHO cells)
Format: cell-based
condition_notes: CHO; read-out: Efficacy (%)
Decide using Emax: a value greater than or equal to 200% is rule met, a smaller one is rule not met.

Reference set, count: 5
CC[C@H]1[C@@H](O)[C@@H]2[C@H](CC[C@]3(C)[C@@H]([C@H](C)C[C@H](C)C(=O)NS(=O)(=O)c4ccc(C(C)(C)C)cc4)CC[C@@H]23)[C@@]2(C)CC[C@@H](O)C[C@@H]12	rule not met
CC[C@H]1[C@@H](O)[C@@H]2[C@H](CC[C@]3(C)[C@@H]([C@H](C)C[C@@H](C)C(=O)NS(=O)(=O)c4ccc(C(C)(C)C)cc4)CC[C@@H]23)[C@@]2(C)CC[C@@H](O)C[C@@H]12	rule not met
CC[C@@H]1C2C[C@H](O)CCC2(C)[C@H]2CCC3(C)C([C@H](C)CCC(=O)NS(=O)(=O)c4ccccn4)CC[C@H]3[C@@H]2[C@@H]1O (stereo partly drawn)	rule met
CC[C@@H]1C2C[C@H](O)CCC2(C)[C@H]2CCC3(C)C([C@H](C)CCC(=O)NS(=O)(=O)c4cnccn4)CC[C@H]3[C@@H]2[C@@H]1O (stereo partly drawn)	rule met
CC[C@H]1[C@@H](O)[C@@H]2[C@H](CC[C@]3(C)[C@@H]([C@H](C)CCC(=O)NS(C)(=O)=O)CC[C@@H]23)[C@@]2(C)CC[C@@H](O)C[C@@H]12	rule met

Does the reported Emax for CC[C@@H]1C2C[C@H](O)CCC2(C)[C@H]2CCC3(C)C([C@H](C)CCC(=O)NS(=O)(=O)c4nccs4)CC[C@H]3[C@@H]2[C@@H]1O (stereo partly drawn) fall at or above the 200% mark?
rule met

---

experimental_target: Human FXR (NR1H4) (Homo sapiens (Human), UniProt Q96RI1)
experiment_notes: Human FXR (NR1H4) Assay (Gal4 promoter driven luciferase reporter transactivation in CHO cells)
Type: cell-based
condition_notes: CHO, read-out: Efficacy (%)
Procedure: Assays Human FXR (NR1H4) Assay Determination of a ligand mediated Gal4 promoter driven transactivation to quantify ligand binding mediated activation of FXR. […] The principle application of this reporter assay system is to quantify functional activity of human FXR. […] Luminescence intensity of the reaction is quantified using a plate-reading luminometer, Envision. […] Cells were incubated for additional 22 hours before luciferase activities were measured. […] Read time may be 0.5 second (500 mSec) per well.
reported_metric: Emax

CC[C@@H]1C2C[C@H](O)CCC2(C)[C@H]2CCC3(C)C([C@H](C)CCC(=O)NS(=O)(=O)c4ccc(C(F)(F)F)cc4)CC[C@H]3[C@@H]2[C@@H]1O (some centres unmarked) [Example 475]	590%

For the 4 compounds below, give their Emax values.
1. CC[C@@H]1C2C[C@H](O)CCC2(C)[C@H]2CCC3(C)C([C@H](C)CCC(=O)NS(=O)(=O)c4ccc5ccccc5c4)CC[C@H]3[C@@H]2[C@@H]1O (some centres unmarked) [Example 472]
2. CC[C@@H]1C2C[C@H](O)CCC2(C)[C@H]2CCC3(C)C([C@H](C)CCC(=O)NS(=O)(=O)c4cccc5ccccc45)CC[C@H]3[C@@H]2[C@@H]1O (some centres unmarked) [Example 483]
3. CC[C@H]1[C@@H](O)[C@@H]2[C@H](CC[C@]3(C)[C@@H]([C@H](C)CCCC(=O)NS(=O)(=O)c4ccc(C(C)(C)C)cc4)CC[C@@H]23)[C@@]2(C)CC[C@@H](O)C[C@@H]12 [Example 491]
4. CC[C@@H]1C2C[C@H](O)CCC2(C)[C@H]2CCC3(C)C([C@H](C)CCC(=O)NS(=O)(=O)C4CCCCC4)CC[C@H]3[C@@H]2[C@@H]1O (some centres unmarked) [Example 468]

1. 580%
2. 308%
3. 182%
4. 480%
